- PROCEDURE TEXT: Daptomycin plasma pharmacokinetics at steady state in patients with Staphylococcus spp. infective endocarditis
- CONDITION LABEL: human, in vivo, iv, Daptomycin t1/2 (elimination half-life), group A 8–10 mg/kg daily, IV; 0.693/kel; median (IQR), 15 patients

| COMPOUND | half-life / h |
| --- | --- |
| CCCCCCCCCC(=O)N[C@@H](Cc1c[nH]c2ccccc12)C(=O)N[C@H](CC(N)=O)C(=O)N[C@@H](CC(=O)O)C(=O)N[C@@H]1C(=O)NCC(=O)N[C@@H](CCCN)C(=O)N[C@@H](CC(=O)O)C(=O)N[C@H](C)C(=O)N[C@@H](CC(=O)O)C(=O)NCC(=O)N[C@H](CO)C(=O)N[C@@H]([C@H](C)CC(=O)O)C(=O)N[C@@H](CC(=O)c2ccccc2N)C(=O)O[C@@H]1C [Daptomycin, daptomycin] | 16.9 |

---

- PROCEDURE TEXT: Daptomycin plasma pharmacokinetics at steady state in patients with Staphylococcus spp. infective endocarditis
- CONDITION LABEL: human, in vivo, iv, Daptomycin t1/2 (elimination half-life), group B 11–12 mg/kg daily, IV; 0.693/kel; median (IQR), 14 patients
- Method: Tubes were centrifuged at 10,400 rpm for at least 10 min at room temperature; separated plasma was then dispensed into polypropylene-labelled tubes and stored at −80°C until the bioanalysis was carried out. […] QcH (80 µg/mL), QcM (40 µg/mL) and QcL (4 µg/mL), by serial dilution in plasma. […] Just before the analysis, patient plasma samples were thawed, and calibrators and quality controls were prepared fresh in the same matrix. […]

| COMPOUND | half-life, h |
| --- | --- |
| CCCCCCCCCC(=O)N[C@@H](Cc1c[nH]c2ccccc12)C(=O)N[C@H](CC(N)=O)C(=O)N[C@@H](CC(=O)O)C(=O)N[C@@H]1C(=O)NCC(=O)N[C@@H](CCCN)C(=O)N[C@@H](CC(=O)O)C(=O)N[C@H](C)C(=O)N[C@@H](CC(=O)O)C(=O)NCC(=O)N[C@H](CO)C(=O)N[C@@H]([C@H](C)CC(=O)O)C(=O)N[C@@H](CC(=O)c2ccccc2N)C(=O)O[C@@H]1C [Daptomycin, daptomycin] | 15.1 |
